- testTarget: human Her2 exon 20 insertion mutation YVMA (Homo sapiens, UniProt P04626, INS775YVMA)
- Sequence (P04626 with tags, fused parts or gaps INS775YVMA): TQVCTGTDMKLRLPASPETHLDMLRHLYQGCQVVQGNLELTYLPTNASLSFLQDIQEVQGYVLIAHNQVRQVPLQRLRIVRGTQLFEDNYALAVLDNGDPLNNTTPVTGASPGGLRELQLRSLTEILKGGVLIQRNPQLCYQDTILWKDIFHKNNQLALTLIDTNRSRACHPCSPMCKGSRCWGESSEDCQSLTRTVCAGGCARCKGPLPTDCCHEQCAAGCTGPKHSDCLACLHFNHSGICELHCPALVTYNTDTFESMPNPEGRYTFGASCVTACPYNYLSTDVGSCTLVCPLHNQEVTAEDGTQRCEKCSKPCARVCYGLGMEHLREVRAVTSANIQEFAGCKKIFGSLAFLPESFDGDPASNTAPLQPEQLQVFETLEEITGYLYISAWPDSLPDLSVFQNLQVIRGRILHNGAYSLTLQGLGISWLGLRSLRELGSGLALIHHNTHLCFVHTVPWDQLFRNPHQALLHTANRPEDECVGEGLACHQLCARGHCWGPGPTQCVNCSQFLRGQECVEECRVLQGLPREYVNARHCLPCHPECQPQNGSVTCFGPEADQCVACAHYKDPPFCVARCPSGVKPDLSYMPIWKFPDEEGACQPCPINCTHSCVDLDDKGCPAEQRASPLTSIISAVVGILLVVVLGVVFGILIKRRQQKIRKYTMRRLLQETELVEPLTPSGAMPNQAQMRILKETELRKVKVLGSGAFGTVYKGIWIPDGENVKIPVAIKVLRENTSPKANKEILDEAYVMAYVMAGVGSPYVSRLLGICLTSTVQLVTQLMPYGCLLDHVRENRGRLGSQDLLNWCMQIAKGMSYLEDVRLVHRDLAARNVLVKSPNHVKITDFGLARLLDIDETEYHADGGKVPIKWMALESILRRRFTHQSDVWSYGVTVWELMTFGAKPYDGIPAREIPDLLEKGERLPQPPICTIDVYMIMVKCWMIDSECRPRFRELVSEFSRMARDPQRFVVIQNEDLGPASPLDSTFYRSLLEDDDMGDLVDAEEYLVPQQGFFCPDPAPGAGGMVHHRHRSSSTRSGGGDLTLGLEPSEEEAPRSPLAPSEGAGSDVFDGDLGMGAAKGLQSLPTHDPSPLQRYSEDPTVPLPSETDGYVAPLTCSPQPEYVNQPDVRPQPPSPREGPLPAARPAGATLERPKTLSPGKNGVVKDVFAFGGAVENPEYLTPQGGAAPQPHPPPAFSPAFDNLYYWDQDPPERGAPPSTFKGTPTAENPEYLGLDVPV
- measurementNotes: Her2 Exon 20 YVMA insertion cellular phosphorylation inhibition (MSD p-Her2 Y1248/total Her2);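 further: lentivirally transduced NIH-3T3 cells in 1% FBS medium, electrochemiluminescent MSD read-out, graded compound concentrations at 37 °C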
- cond: Her2 YVMAins cells, 4 h compound
Where a name gives a salt, the structure may show the parent alone.
Class field: derived from IC50; ranges class 0 = under 5 nM, class 1 = from 5 nM up to 20 nM, class 2 = 20 nM and over

Where would C=CC(=O)Nc1cc(Nc2nccc(Nc3cc(Cl)c(F)cc3C(C)(C)O)n2)c(OC)cc1N1C[C@@H]2CN(C)[C@@H]2C1 [Compound 97, formic acid salt] land among the classes by reported IC50? class 0

Record C=CC(=O)N1CCC(Oc2cc3c(Nc4ccc(Cl)c(Cl)c4F)ncnc3cc2OC)CC1 [Poziotinib, reference compound] — which class? class 0

Which class is correct for the following compound? C=CC(=O)Nc1cc(Nc2ncnc(Nc3cc(F)c(F)cc3C(C)(O)CC)n2)c(OC)cc1N1CC[C@@H](N(C)C)C1 (stereo partly shown) class 0

Bin? C=CC(=O)Nc1cc(Nc2ncnc(Nc3cnc(C)cc3C(C)(C)O)n2)c(OC)cc1N(C)CCN(C)C class 2

Bin this entry: [2H]C([2H])([2H])N(CCN(C)c1cc(OC)c(Nc2ncnc(Nc3cc(F)c(F)cc3C(C)(C)O)n2)cc1NC(=O)C=C)C([2H])([2H])[2H] class 1

Consider C=CC(=O)Nc1cc(Nc2nccc(Nc3cc(Cl)c(F)cc3C(C)(C)O)n2)c(OC)cc1N1C[C@H]2CN(C)[C@H]2C1 [Compound 89, formic acid salt] . To which IC50 class does it belong? class 1

GET /class?item= C=CC(=O)Nc1cc(Nc2ncc(C#N)c(Nc3cc(Cl)c(F)cc3C(C)(C)O)n2)c(OC)cc1N1CC[C@@H](N(C)C)C1 class 2

Could you place C=CC(=O)Nc1cc(Nc2ncnc(Nc3cc(F)c(F)cc3C(C)(O)CC)n2)c(OC)cc1N1CCC[C@H]1CN(C)C (stereo partly shown) in its proper category? Many thanks. class 2

# bin lookup: classify C=CC(=O)Nc1cc(Nc2ncnc(Nc3cc(Cl)c(F)cc3C(C)(C)O)n2)c(OC)cc1N1CCC[C@H]1CN(C)C by its IC50 class 2

Could you tell me which band C=CC(=O)Nc1cc(Nc2ncnc(Nc3cc(F)c(F)cc3C(C)(C)O)n2)c(OC)cc1N1CCOC[C@@H]1CN(C)C belongs to? class 0

Class label required: C=CC(=O)Nc1cc(Nc2ncnc(Nc3ccccc3C(C)(O)C(F)(F)F)n2)c(OC)cc1N(C)CCN(C)C (stereo not shown) class 1

Looking at C=CC(=O)Nc1cc(Nc2nccc(Nc3cc(Cl)c(F)cc3C(C)(C)O)n2)c(OC)cc1N1C[C@@H]2CN(C)C[C@@H]21 , which class would you pick? class 0

Textbook exercise: identify the category of the compound given here, C=CC(=O)Nc1cc(Nc2ncnc(Nc3ccccc3C3(O)COC3)n2)c(OC)cc1N(C)CCN(C)C , according to its measured value. class 2

Lab log: C=CC(=O)Nc1cc(Nc2ncnc(Nc3cc(F)c(Cl)cc3C(C)(C)O)n2)c(OC)cc1N(C)CCN(C)C — assign IC50 category class 0

---

- testTarget: human EGFR exon 20 H773_V774insNPH (Homo sapiens, UniProt P00533, INS773NPH)
- Sequence (P00533 with tags, fused parts or gaps INS773NPH): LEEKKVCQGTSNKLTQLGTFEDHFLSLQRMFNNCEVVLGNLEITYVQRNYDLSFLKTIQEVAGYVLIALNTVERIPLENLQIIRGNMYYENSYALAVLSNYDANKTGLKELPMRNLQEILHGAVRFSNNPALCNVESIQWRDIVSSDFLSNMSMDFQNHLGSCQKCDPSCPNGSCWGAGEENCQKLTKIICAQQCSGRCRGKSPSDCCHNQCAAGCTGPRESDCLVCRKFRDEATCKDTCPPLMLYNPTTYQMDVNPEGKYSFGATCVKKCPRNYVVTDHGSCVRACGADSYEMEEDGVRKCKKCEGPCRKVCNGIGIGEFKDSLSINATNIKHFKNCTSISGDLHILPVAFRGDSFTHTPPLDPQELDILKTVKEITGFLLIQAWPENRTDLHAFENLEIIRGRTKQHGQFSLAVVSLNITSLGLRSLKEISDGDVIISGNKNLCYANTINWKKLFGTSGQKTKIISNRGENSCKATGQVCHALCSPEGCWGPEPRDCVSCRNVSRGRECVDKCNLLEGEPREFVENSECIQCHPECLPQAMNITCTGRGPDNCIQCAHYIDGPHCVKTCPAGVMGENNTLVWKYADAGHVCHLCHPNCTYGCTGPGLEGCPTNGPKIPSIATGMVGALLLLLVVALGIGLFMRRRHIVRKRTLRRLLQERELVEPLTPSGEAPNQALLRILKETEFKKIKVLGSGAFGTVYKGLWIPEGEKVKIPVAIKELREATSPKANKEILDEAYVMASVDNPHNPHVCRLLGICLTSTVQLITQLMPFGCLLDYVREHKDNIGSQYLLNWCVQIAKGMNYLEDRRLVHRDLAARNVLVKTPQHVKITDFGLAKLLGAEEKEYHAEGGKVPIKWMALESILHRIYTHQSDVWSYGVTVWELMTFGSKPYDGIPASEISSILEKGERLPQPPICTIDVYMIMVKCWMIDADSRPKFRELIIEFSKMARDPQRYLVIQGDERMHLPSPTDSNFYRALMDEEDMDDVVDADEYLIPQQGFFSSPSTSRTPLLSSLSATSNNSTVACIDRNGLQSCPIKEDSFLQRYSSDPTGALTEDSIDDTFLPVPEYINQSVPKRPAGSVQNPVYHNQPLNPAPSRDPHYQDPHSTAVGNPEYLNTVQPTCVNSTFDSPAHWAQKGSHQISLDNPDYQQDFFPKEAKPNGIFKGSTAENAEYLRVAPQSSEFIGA
- measurementNotes: EGFR Exon20 NPH insertion cellular phosphorylation inhibition (MSD pEGFR Y1068/total EGFR);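 further: IL3-independent Ba/F3 cells with constitutively phosphorylated EGFR, compound exposure at 37 °C under 5% CO2, electrochemiluminescent MSD measurement of the p-EGFR to total EGFR ratio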
- cond: Ba/F3 EGFR NPH ins cells, 4 h compound, p-EGFR(Y1068)/total EGFR
Structures can show the parent of a compound that is named as a salt.
Exercise: state measured pIC50 for each of the molecules provided.
# pIC50 = -log10(concentration in molar units)

State, in one line, measured pIC50 of C=CC(=O)Nc1cc(Nc2ncnc(Nc3cc(F)c(F)cc3C(C)(C)O)n2)c(OC)cc1N1CC(CN(C)C)C1 6.49

Give me measured pIC50, please, for this molecule: C=CC(=O)Nc1cc(Nc2ncnc(Nc3cc(Cl)c(F)cc3C3(O)CCC3)n2)c(OC)cc1N(C)CCN(C)C [Compound 72, formic acid salt] 7.73

Check the records and state pIC50 for C=CC(=O)Nc1cc(Nc2ncnc(Nc3cc(F)c(F)cc3C(C)(C)O)n2)c(OC)cc1N1CC[C@@H](N(C)C)C1 7.55
